Value source: patent US9650390B2

Entries and their measured Tumor volume (mm^3) (D20) follow.
test system: human prostate cancer PC-3; assay: Inhibitory activity of cabazitaxel derivatives on subcutaneously xenografted tumor PC-3 in nude mice; details: D20; 13 mg/kg, D0 IV; PC-3 xenograft in nude mice
Write the numeric value and follow it with the unit.

Reference set (2 entries):
Query: Using the record for CO[C@H]1C(=O)[C@]2(C)[C@@H](OC)C[C@H]3OC[C@@]3(OC(C)=O)[C@H]2[C@H](OC(=O)c2ccccc2)[C@]2(O)C[C@H](OC(=O)[C@H](OC(=O)[C@H](F)CCN(C)C)[C@@H](NC(=O)OC(C)(C)C)c3ccccc3)C(C)=C1C2(C)C.CS(=O)(=O)O [Compound C7] , state its measured Tumor volume (mm^3) (D20).
Reply: 31.5 ± 11.8 mm^3

Query: Using the record for CCN(CC)CC[C@@H](F)C(=O)O[C@@H](C(=O)O[C@H]1C[C@@]2(O)[C@@H](OC(=O)c3ccccc3)[C@@H]3[C@]4(OC(C)=O)CO[C@@H]4C[C@H](OC)[C@@]3(C)C(=O)[C@H](OC)C(=C1C)C2(C)C)[C@@H](NC(=O)OC(C)(C)C)c1ccccc1.CS(=O)(=O)O [Compound C33] , state its measured Tumor volume (mm^3) (D20).
Reply: 38.6 ± 13.4 mm^3

Others:
Query: Using the record for CO[C@H]1C(=O)[C@]2(C)[C@@H](OC)C[C@H]3OC[C@@]3(OC(C)=O)[C@H]2[C@H](OC(=O)c2ccccc2)[C@]2(O)C[C@H](OC(=O)[C@H](OC(=O)[C@@H](F)CCN(C)C)[C@@H](NC(=O)OC(C)(C)C)c3ccccc3)C(C)=C1C2(C)C.CS(=O)(=O)O [Compound C8] , state its measured Tumor volume (mm^3) (D20).
Reply: 32.1 ± 12.1 mm^3

Query: Using the record for CO[C@H]1C(=O)[C@]2(C)[C@@H](OC)C[C@H]3OC[C@@]3(OC(C)=O)[C@H]2[C@H](OC(=O)c2ccccc2)[C@]2(O)C[C@H](OC(=O)[C@H](OC(=O)C(F)CCN(C)C)[C@@H](NC(=O)OC(C)(C)C)c3ccccc3)C(C)=C1C2(C)C.CS(=O)(=O)O (stereo partly shown) [Compound C9] , state its measured Tumor volume (mm^3) (D20).
Reply: 32.5 ± 11.6 mm^3

Query: Using the record for CO[C@H]1C(=O)[C@]2(C)[C@@H](OC)C[C@H]3OC[C@@]3(OC(C)=O)[C@H]2[C@H](OC(=O)c2ccccc2)[C@]2(O)C[C@H](OC(=O)[C@H](OC(=O)[C@H](F)CCN(C)C(C)C)[C@@H](NC(=O)OC(C)(C)C)c3ccccc3)C(C)=C1C2(C)C.Cl [Compound C34] , state its measured Tumor volume (mm^3) (D20).
Reply: 42.8 ± 11.9 mm^3

Query: Using the record for CCN(C)CC[C@@H](F)C(=O)O[C@@H](C(=O)O[C@H]1C[C@@]2(O)[C@@H](OC(=O)c3ccccc3)[C@@H]3[C@]4(OC(C)=O)CO[C@@H]4C[C@H](OC)[C@@]3(C)C(=O)[C@H](OC)C(=C1C)C2(C)C)[C@@H](NC(=O)OC(C)(C)C)c1ccccc1.O=C(O)/C=C\C(=O)O [Compound C32] , state its measured Tumor volume (mm^3) (D20).
Reply: 35.8 ± 12.7 mm^3

Query: Using the record for CO[C@H]1C(=O)[C@]2(C)[C@@H](OC)C[C@H]3OC[C@@]3(OC(C)=O)[C@H]2[C@H](OC(=O)c2ccccc2)[C@]2(O)C[C@H](OC(=O)[C@H](OC(=O)[C@@H](CCN(C)C)C(F)(F)F)[C@@H](NC(=O)OC(C)(C)C)c3ccccc3)C(C)=C1C2(C)C.CS(=O)(=O)O [Compound C35] , state its measured Tumor volume (mm^3) (D20).
Reply: 42.3 ± 12.6 mm^3

* * *

test: In vitro dissociation in blood plasma of rat; type: in vitro ADME, SD rats; conditions: fresh SD rat plasma, 37° C., 2 min incubation
Measured metric: Sampling time/Dissociation percent (%) 2 min
Supply the numeric figure in %, leaving out any unit text.

Reference set (3 entries):
Query: Using the record for CC(=O)O[C@H]1C(=O)[C@]23C[C@H]2C[C@H]2OC[C@@]2(OC(C)=O)[C@H]3[C@H](OC(=O)c2ccccc2)[C@]2(O)C[C@H](OC(=O)[C@H](OC(=O)[C@H](F)CC(C)N(C)C)[C@@H](NC(=O)OC(C)(C)C)c3ccccc3)C(C)=C1C2(C)C.Cl (stereo partly shown) , state its measured Sampling time/Dissociation percent (%) 2 min.
Reply: 61.1

Query: Using the record for CC(=O)O[C@H]1C(=O)[C@@]2(C)[C@H]([C@H](OC(=O)c3ccccc3)[C@]3(O)C[C@H](OC(=O)[C@H](OC(=O)[C@@H](F)CCN(C)C)[C@@H](NC(=O)c4ccccc4)c4ccccc4)C(C)=C1C3(C)C)[C@]1(OC(C)=O)CO[C@@H]1C[C@@H]2O.Cl , state its measured Sampling time/Dissociation percent (%) 2 min.
Reply: 59.8

Query: Using the record for CC(=O)O[C@@]12CO[C@@H]1C[C@H](O)[C@@]1(C)C(=O)[C@H](O)C3=C(C)[C@@H](OC(=O)[C@H](OC(=O)[C@@H](F)CCN(C)C)[C@@H](NC(=O)OC(C)(C)C)c4ccccc4)C[C@@](O)([C@@H](OC(=O)c4ccccc4)[C@H]21)C3(C)C.CS(=O)(=O)O , state its measured Sampling time/Dissociation percent (%) 2 min.
Reply: 58.9

Consider the record given below.
Query: Using the record for CO[C@H]1C(=O)[C@]2(C)[C@@H](OC)C[C@H]3OC[C@@]3(OC(C)=O)[C@H]2[C@H](OC(=O)c2ccccc2)[C@]2(O)C[C@H](OC(=O)[C@H](OC(=O)C(F)CCN(C)C)[C@@H](NC(=O)OC(C)(C)C)c3ccccc3)C(C)=C1C2(C)C.CS(=O)(=O)O (stereo partly shown) , state its measured Sampling time/Dissociation percent (%) 2 min.
Reply: 49.3

* * *

assay: In vitro dissociation in blood plasma of rat; assay type: in vitro ADME, SD rats; conditions: fresh SD rat plasma, 37° C., 10 min incubation
Measured metric: Sampling time/Dissociation percent (%) 10 min
Supply the numeric figure in %, leaving out any unit text.

Reference set (3 entries):
Query: Using the record for CC(=O)O[C@@]12CO[C@@H]1C[C@H](O)[C@@]1(C)C(=O)[C@H](O)C3=C(C)[C@@H](OC(=O)[C@H](OC(=O)C(F)CCN(C)C)[C@@H](NC(=O)OC(C)(C)C)c4ccccc4)C[C@@](O)([C@@H](OC(=O)c4ccccc4)[C@H]21)C3(C)C.Cl (stereo partly shown) , state its measured Sampling time/Dissociation percent (%) 10 min.
Reply: 100

Query: Using the record for CC(=O)O[C@@]12CO[C@@H]1C[C@H](O)[C@@]1(C)C(=O)[C@H](O)C3=C(C)[C@@H](OC(=O)[C@H](OC(=O)[C@@H](F)CCN(C)C)[C@@H](NC(=O)OC(C)(C)C)c4ccccc4)C[C@@](O)([C@@H](OC(=O)c4ccccc4)[C@H]21)C3(C)C.CS(=O)(=O)O , state its measured Sampling time/Dissociation percent (%) 10 min.
Reply: 100

Query: Using the record for CO[C@H]1C(=O)[C@]2(C)[C@@H](OC)C[C@H]3OC[C@@]3(OC(C)=O)[C@H]2[C@H](OC(=O)c2ccccc2)[C@]2(O)C[C@H](OC(=O)[C@H](OC(=O)[C@H](F)CCN(C)C)[C@@H](NC(=O)OC(C)(C)C)c3ccccc3)C(C)=C1C2(C)C.CS(=O)(=O)O , state its measured Sampling time/Dissociation percent (%) 10 min.
Reply: 100

Others:
Query: Using the record for COC1C(=O)C2(C)C(OC)CC3OCC3(OC(C)=O)C2C(OC(=O)c2ccccc2)C2(O)CC(OC(=O)C(OC(=O)C(CCN)C(F)F)C(NC(=O)OC(C)(C)C)c3ccccc3)C(C)=C1C2(C)C.O=S(=O)([O-])O.[Na+] (stereo not shown) , state its measured Sampling time/Dissociation percent (%) 10 min.
Reply: 96.8

Query: Using the record for CO[C@H]1C(=O)[C@]2(C)[C@@H](OC)C[C@H]3OC[C@@]3(OC(C)=O)[C@H]2[C@H](OC(=O)c2ccccc2)[C@]2(O)C[C@H](OC(=O)[C@H](OC(=O)C(F)CCN(C)C)[C@@H](NC(=O)OC(C)(C)C)c3ccccc3)C(C)=C1C2(C)C.CS(=O)(=O)O (stereo partly shown) , state its measured Sampling time/Dissociation percent (%) 10 min.
Reply: 100

Query: Using the record for CC(=O)O[C@@]12CO[C@@H]1C[C@H](O)[C@@]1(C)C(=O)[C@H](O)C3=C(C)[C@@H](OC(=O)[C@H](OC(=O)[C@H](F)CC(C)N(C)C)[C@@H](NC(=O)OC(C)(C)C)c4ccccc4)C[C@@](O)([C@@H](OC(=O)c4ccccc4)[C@H]21)C3(C)C.Cl (stereo partly shown) , state its measured Sampling time/Dissociation percent (%) 10 min.
Reply: 92.7

Query: Using the record for CC(=O)O[C@@]12CO[C@@H]1C[C@H](O)[C@@]1(C)C(=O)[C@H](O)C3=C(C)[C@@H](OC(=O)[C@H](OC(=O)[C@@H](F)CCN(C)C)[C@@H](NC(=O)OC(C)(C)C)c4ccccc4)C[C@@](O)([C@@H](OC(=O)c4ccccc4)[C@H]21)C3(C)C.Cl , state its measured Sampling time/Dissociation percent (%) 10 min.
Reply: 100
